Could you please report measured AC50 for the items listed next?
# Tested on: E. coli WT ribosome GFP fluorescence, mixed culture, 24 h
# Assay Explanation: wild-type E. coli growth inhibition versus h38 humanized strain – h38 mutant RFP, wild-type GFP, cherry-pick, dose response (AID 977622)
# Measurement Setup: E. coli mixed culture, 24 h; measured here: total growth OD600
Records with an inconclusive call do not appear.

Query: Request: AC50, test system E. coli WT ribosome GFP fluorescence, mixed culture, 24 h, entry Nc1[nH]c(C(=O)c2ccccc2)c(-c2ccc(Cl)cc2)c1C(=O)NCCc1c[nH]c2ccccc12
Reply: > 100 µM

Query: Request: AC50, test system E. coli WT ribosome GFP fluorescence, mixed culture, 24 h, entry Cc1ccc2oc(C(=O)N(CCO)Cc3ccccc3)c(C)c2c1
Reply: 37.1 µM

Query: Request: AC50, test system E. coli WT ribosome GFP fluorescence, mixed culture, 24 h, entry CCCCc1ccc(S(=O)(=O)Nc2ccc(C)c(NS(C)(=O)=O)c2)cc1
Reply: 51.4 µM

Query: Request: AC50, test system E. coli WT ribosome GFP fluorescence, mixed culture, 24 h, entry COc1ccc(C)c2sc(N(CCN(C)C)C(=O)c3ccc(S(=O)(=O)N(C)c4ccccc4)cc3)nc12
Reply: > 100 µM

Query: Request: AC50, test system E. coli WT ribosome GFP fluorescence, mixed culture, 24 h, entry O=C1c2ccccc2C(=O)N1CCc1c[nH]c2ccccc12
Reply: > 100 µM

Query: Request: AC50, test system E. coli WT ribosome GFP fluorescence, mixed culture, 24 h, entry O=C(Cc1ccc(Br)cc1)Nc1cccc(-c2cn3c(n2)SCC3)c1
Reply: > 100 µM

Query: Request: AC50, test system E. coli WT ribosome GFP fluorescence, mixed culture, 24 h, entry O=C(NCCCn1ccnc1)c1sc2cc([N+](=O)[O-])ccc2c1Cl
Reply: > 100 µM

Query: Request: AC50, test system E. coli WT ribosome GFP fluorescence, mixed culture, 24 h, entry Cc1ccsc1C(=O)N1CCCC(C(=O)c2cc(F)ccc2F)C1 (configuration not stated)
Reply: > 100 µM

Query: Request: AC50, test system E. coli WT ribosome GFP fluorescence, mixed culture, 24 h, entry COCCN(C(=O)c1ccccc1F)c1nnc(-c2ccc(OC)cc2)s1
Reply: > 100 µM

Query: Request: AC50, test system E. coli WT ribosome GFP fluorescence, mixed culture, 24 h, entry CC(=O)OC(COc1cccc(C)c1)Cn1cnc2ccccc21 (configuration not stated)
Reply: 50.7 µM

Query: Request: AC50, test system E. coli WT ribosome GFP fluorescence, mixed culture, 24 h, entry Cc1cc(NC(=O)c2cccc(Oc3ccccc3)c2)n[nH]1
Reply: 40.6 µM

Query: Request: AC50, test system E. coli WT ribosome GFP fluorescence, mixed culture, 24 h, entry NS(=O)(=O)c1cccc(NC(=O)CSc2nc3ccccc3n2-c2ccccc2)c1
Reply: 36 µM

Query: Request: AC50, test system E. coli WT ribosome GFP fluorescence, mixed culture, 24 h, entry COc1ccc(NC(=O)Nc2cccc3c2O[C@H](CN(C)S(=O)(=O)c2ccc(Cl)cc2)[C@H](C)CN([C@H](C)CO)C3=O)cc1
Reply: 44.2 µM

Query: Request: AC50, test system E. coli WT ribosome GFP fluorescence, mixed culture, 24 h, entry Cc1cc(C(N)=O)nn1-c1c(Cl)cc(Cl)cc1Cl
Reply: > 100 µM

Query: Request: AC50, test system E. coli WT ribosome GFP fluorescence, mixed culture, 24 h, entry O=C(NCc1ccc(-c2nc3ccccc3s2)cc1)c1ccco1
Reply: 3 µM

Query: Request: AC50, test system E. coli WT ribosome GFP fluorescence, mixed culture, 24 h, entry Cc1cccc(CN2C(=O)c3ccccc3Sc3ccc(C(=O)O)cc32)c1
Reply: > 100 µM

Query: Request: AC50, test system E. coli WT ribosome GFP fluorescence, mixed culture, 24 h, entry O=C(Nc1cccc(Cl)c1)N1C[C@@H]2[C@H](c3ccccc31)[C@@H](CO)N2CC1CCCCC1
Reply: 50 µM

Query: Request: AC50, test system E. coli WT ribosome GFP fluorescence, mixed culture, 24 h, entry COc1ccc(CN2CCC3CC2c2cc(Cl)ccc23)cc1 (configuration not stated)
Reply: > 100 µM

Query: Request: AC50, test system E. coli WT ribosome GFP fluorescence, mixed culture, 24 h, entry Cc1ccc(S(=O)(=O)NC(C)C(=O)NCc2ccc(Cl)cc2)cc1 (configuration not stated)
Reply: > 100 µM

Query: Request: AC50, test system E. coli WT ribosome GFP fluorescence, mixed culture, 24 h, entry Cc1ccsc1C(=O)OCC(=O)N1CCc2ccccc2C1
Reply: > 100 µM

Query: Request: AC50, test system E. coli WT ribosome GFP fluorescence, mixed culture, 24 h, entry CCN(c1ccccc1)S(=O)(=O)c1ccc(Cl)c(NC(=O)CSc2n[nH]c(N)n2)c1
Reply: > 100 µM

Query: Request: AC50, test system E. coli WT ribosome GFP fluorescence, mixed culture, 24 h, entry Cc1cc(C(=O)OCC(=O)Nc2cccc(S(N)(=O)=O)c2)c2ccccc2n1
Reply: > 100 µM
